Assay: qHTS assay to identify small molecule agonists of H2AX - cell viability counter screen (AID 1224847); further: nearly all actives have a fitted effect of over 30% in size
Conditions: CHO-K1 viability, CellTiter-Glo luminescence, 3 h; series mostly up to 70.9 µM
Inconclusive results are not listed. Calls of active or inactive are those of the source. The call rests on the fitted dose curve.
Outcome codes: active, inactive

| record-smiles | qualitative-label |
| --- | --- |
| COc1ccc(CN2CCN(C(c3ccc(F)cc3)c3ccc(F)cc3)CC2)c(OC)c1OC | active |
| CCCCCCCCCCCC(=O)NCCCN(C)C | active |
| C[C@H]1[C@H]2CC[C@H]3[C@@H]4CC=C5C[C@@H](N(C)C)CC[C@]5(C)[C@H]4CC[C@]23CN1C | inactive |
| CC(=O)SC[C@@H](Cc1ccccc1)C(=O)NCC(=O)OCc1ccccc1 | inactive |
| CCCCCCCC/C=C/CCCCCCCC1=NCCN1CCO | active |

---

Test: qHTS assay to identify small molecule antagonists of the progesterone receptor (PR) signaling pathway - cell viability counter screen (AID 1346798); further: nearly all actives have a fitted effect of over 50% in size
Settings: PR-UAS-bla HEK293T viability, CellTiter-Glo luminescence, 16 h; series mostly up to 92.4 µM
Results filed as inconclusive are left out. Calls of active or inactive are those of the source. Calls come from the whole dose curve; as a rule, active = well fitted cell-killing curve with a large enough effect in the repeat runs; inconclusive = weak or mixed curves, or effect the other way; inactive = no such curve, though single readings can be large or run the other way.
Outcome codes: T for active, F for inactive

| record-smiles | qualitative-label |
| --- | --- |
| CCCCCCCCCCCCCCCC[N+](C)(C)CCN(Cc1ccc(OC)cc1)c1ncccn1 | T |
| CCN(Cc1cccnc1)C(=O)c1cccc(Cl)c1[C@]1(C)C(=O)N(Cc2ccc(OC)cc2OC)c2ccc(Cl)cc21 | F |
| CC(=O)SC[C@@H](Cc1ccccc1)C(=O)NCC(=O)OCc1ccccc1 | F |
| N/C(=N\N=C\c1ccc(Cl)cc1)N/N=C/c1ccc(Cl)cc1 | T |
| CC(=O)S[C@@H]1CC2=CC(=O)CC[C@]2(C)[C@H]2CC[C@@]3(C)[C@@H](CC[C@@]34CCC(=O)O4)[C@H]12 | T |

---

Assay: qHTS RealTime-Glo MT Cell Viability Assay in HepG2 cells - 0 hour (AID 1224889); further: nearly all actives have a fitted effect of over 50% in size
Conditions: RealTime-Glo luminescence; series mostly up to 76.8 µM
Inconclusive results are not listed. Calls of active or inactive are those of the source. Calls follow the shape of the dose curve; as a rule, active = well fitted cell-killing curve with a large enough effect in the repeat runs; inconclusive = weak or mixed curves, or effect the other way; inactive = flat fitted curve, though single readings scatter.
Outcome codes: active, inactive

| compound | qualitative-label |
| --- | --- |
| N=C1N=C(N)c2cc3ccccc3cc21 | inactive |
| CN(C/C=C/C#CC(C)(C)C)Cc1cccc2ccccc12 | inactive |
| Cn1cc(C(=O)[C@@H]2CCc3nc[nH]c3C2)c2ccccc21 | inactive |
| CCCCCCCCCCCCCCCC[N+](C)(C)CCN(Cc1ccc(OC)cc1)c1ncccn1 | inactive |
| C[C@H](CCC(=O)O)[C@H]1CC[C@H]2[C@@H]3CC[C@@H]4C[C@H](O)CC[C@]4(C)[C@H]3CC[C@]12C | inactive |
| COCCCC/C(=N\OCCN)c1ccc(C(F)(F)F)cc1 | inactive |
| NC(=O)NS(=O)(=O)c1ccc(N)cc1 | inactive |
| Cc1cccc(S(=O)(=O)O)c1C | inactive |
| Oc1cc2ccccc2c2ccccc12 | inactive |
| CC(C)(C)C(=O)OCOC(=O)[C@@H]1N2C(=O)[C@@H](NC(=O)[C@H](N)c3ccccc3)[C@H]2SC1(C)C | inactive |
| Cc1cccc(N(C)C(=S)Oc2ccc3c(c2)C2CCC3C2)c1 (configuration not stated) | inactive |
| Cc1oc(-c2ccccc2)nc1CCC(=O)c1ccc(CC2SC(=O)NC2=O)cc1 (configuration not stated) | inactive |
| OCCCCCCCCCCCCBr | inactive |
| OC1(c2ccc(Cl)c(C(F)(F)F)c2)CCN(CCCC(c2ccc(F)cc2)c2ccc(F)cc2)CC1 | inactive |
| CC(C)n1nc(-c2cc3cc(O)ccc3[nH]2)c2c(N)ncnc21 | inactive |
| C/C=C1/C(=O)C[C@H]2[C@@H]3CCC4=CC(=O)CC[C@]4(C)[C@H]3CC[C@]12C | active |
| O=C(NOCC1CC1)c1ccc(F)c(F)c1Nc1ccc(I)cc1Cl | inactive |
| O=C(c1ccc(O)cc1O)c1ccc(O)cc1O | inactive |
| Cc1ccc(O)c(C(C)(C)C)c1 | inactive |
| CS(=O)(=O)CCNCc1ccc(-c2ccc3ncnc(Nc4ccc(OCc5cccc(F)c5)c(Cl)c4)c3c2)o1 | active |
| ON=C1CCCC1 | inactive |
| O=C(Nc1cccc(Cl)c1)OCC#CCCl | inactive |
| S=c1[nH]c2ccccc2s1 | inactive |
| CCN(CC)CCNC(=O)c1c(C)[nH]c(/C=C2\C(=O)Nc3ccc(F)cc32)c1C | inactive |
| N#CC1(c2ccc(F)cc2)CCC(=O)CC1 | inactive |
| Nc1ccccc1O | inactive |
| CC1=NC(C)OC1C (configuration not stated) | inactive |
| C=CC(=O)OCCn1c(=O)n(CCOC(=O)C=C)c(=O)n(CCOC(=O)C=C)c1=O | inactive |
| CCCCN1C(=O)[C@@H]([C@H](O)C2CCCCC2)NC(=O)C12CCN(Cc1ccc(Oc3ccc(C(=O)O)cc3)cc1)CC2 | inactive |
| CSc1ccc(/C=C2/C(C)=C(CC(=O)O)c3cc(F)ccc32)cc1 | inactive |
| CCCC(C)c1ccccc1O (configuration not stated) | inactive |
| CCCCN1CCCC[C@H]1C(=O)Nc1c(C)cccc1C | inactive |

---

Molecular target: Nuclear receptor subfamily 1 group I member 3 (Homo sapiens)
Assay: qHTS assay to identify small molecule agonists of the constitutive androstane receptor (CAR) signaling pathway (AID 1224839); further: nearly all actives have a fitted effect of over 15% in size;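 on activation: HepG2 cells stably carrying human CAR and a CYP2B6 luciferase reporter; on the % scale 0 is the no-effect control and ±100 the full control effect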
Settings: HepG2 hCAR CYP2B6-luciferase, agonist mode, 24 h; series mostly up to 92.4 µM
Results filed as inconclusive are left out. Active and inactive are the calls of the source. The call rests on the fitted dose curve; in most records, active means well fitted activation curve with a large enough effect in the repeat runs; inconclusive means weak or mixed curves; inactive means no such curve, though single readings can be large or run the other way.
Outcome codes: class 1 (active), class 0 (inactive)

| compound | qualitative-label |
| --- | --- |
| Nc1nc2ccccc2n1Cc1ccc(F)cc1 | class 1 |
| S=c1[nH]c2ccccc2s1 | class 1 |
| O=C1C=CC(=O)N1c1ccc(Cc2ccc(N3C(=O)C=CC3=O)cc2)cc1 | class 0 |
| CC(=O)S[C@@H]1CC2=CC(=O)CC[C@]2(C)[C@H]2CC[C@@]3(C)[C@@H](CC[C@@]34CCC(=O)O4)[C@H]12 | class 0 |
| Nc1cc(C(F)(F)F)ccc1S | class 0 |
| O=C(O)c1ccc(Cl)c(Cl)c1 | class 0 |
| COc1cc(-c2nc(NC(=O)c3cc4cc(C)cc(C)c4n3CC(=O)O)sc2CCC2CCCCC2)c(OC)cc1Cl | class 0 |
| Nc1ccc2c3c(cccc13)-c1ccccc1-2 | class 1 |
| Cc1cccc(N(C)C(=S)Oc2ccc3c(c2)C2CCC3C2)c1 (configuration not stated) | class 1 |
| CCc1oc2ccccc2c1C(=O)c1cc(Br)c(O)c(Br)c1 | class 0 |
| Nc1c2ccccc2nc2ccccc12 | class 0 |
| OCc1c[nH]c2ccccc12 | class 1 |

---

Experiment: qHTS assay to identify small molecule HDAC inhibitors - cell viability counter screen (AID 1259365); further: nearly all actives have a fitted effect of over 50% in size
Conditions: HCT-116 viability, CellTiter-Glo ATP luminescence, 2 h; series mostly up to 92.4 µM
Description: U.S. Tox21 Program National Center for Advancing Translational Sciences [NCATS] NIH Chemical Genomics Center [NCGC] U.S. Environmental Protection Agency [EPA] National Institutes of Environmental Health Sciences [NIEHS] National Toxicology Program [NTP] U.S. Food and Drug Administration [FDA] Tox21 Assay Overview: Histone deacetylases (HDACs) are a group of epigenetic enzymes that regulate gene expression by histone deacetylation. […]
Calls of active or inactive are those of the source. The call rests on the fitted dose curve; in most records, active means well fitted cell-killing curve with a large enough effect in the repeat runs; inconclusive means weak or mixed curves, or effect the other way; inactive means flat fitted curve, though single readings scatter.
Outcome codes: active, inactive

| compound | qualitative-label |
| --- | --- |
| C/C=C(\C)C(=O)OCc1ccccc1 | inactive |
| C1CCCC1 | inactive |
| N=C1C=CC(=C(c2ccc(N)cc2)c2ccc(N)cc2)C=C1 | active |
| NC(=O)N1C(=O)C(C(=O)c2cc(Cl)cs2)c2cc(F)c(Cl)cc21 (configuration not stated) | inactive |
| CN(C)CCCOC1(Cc2ccccc2)CCCCCC1 | inactive |
| CCC(Cl)C(Cl)C(Cl)CC(Cl)C(Cl)C(C)Cl (configuration not stated) | inactive |
| COc1cccc2c1C(=O)c1c(O)c3c(c(O)c1C2=O)C[C@@](O)(C(=O)CO)C[C@@H]3O[C@H]1C[C@H](N)[C@H](O[C@@H]2CCCCO2)[C@H](C)O1 | inactive |

---

Target: Progesterone receptor (Homo sapiens) (UniProt P06401)
Sequence (P06401 whole entry, looked up): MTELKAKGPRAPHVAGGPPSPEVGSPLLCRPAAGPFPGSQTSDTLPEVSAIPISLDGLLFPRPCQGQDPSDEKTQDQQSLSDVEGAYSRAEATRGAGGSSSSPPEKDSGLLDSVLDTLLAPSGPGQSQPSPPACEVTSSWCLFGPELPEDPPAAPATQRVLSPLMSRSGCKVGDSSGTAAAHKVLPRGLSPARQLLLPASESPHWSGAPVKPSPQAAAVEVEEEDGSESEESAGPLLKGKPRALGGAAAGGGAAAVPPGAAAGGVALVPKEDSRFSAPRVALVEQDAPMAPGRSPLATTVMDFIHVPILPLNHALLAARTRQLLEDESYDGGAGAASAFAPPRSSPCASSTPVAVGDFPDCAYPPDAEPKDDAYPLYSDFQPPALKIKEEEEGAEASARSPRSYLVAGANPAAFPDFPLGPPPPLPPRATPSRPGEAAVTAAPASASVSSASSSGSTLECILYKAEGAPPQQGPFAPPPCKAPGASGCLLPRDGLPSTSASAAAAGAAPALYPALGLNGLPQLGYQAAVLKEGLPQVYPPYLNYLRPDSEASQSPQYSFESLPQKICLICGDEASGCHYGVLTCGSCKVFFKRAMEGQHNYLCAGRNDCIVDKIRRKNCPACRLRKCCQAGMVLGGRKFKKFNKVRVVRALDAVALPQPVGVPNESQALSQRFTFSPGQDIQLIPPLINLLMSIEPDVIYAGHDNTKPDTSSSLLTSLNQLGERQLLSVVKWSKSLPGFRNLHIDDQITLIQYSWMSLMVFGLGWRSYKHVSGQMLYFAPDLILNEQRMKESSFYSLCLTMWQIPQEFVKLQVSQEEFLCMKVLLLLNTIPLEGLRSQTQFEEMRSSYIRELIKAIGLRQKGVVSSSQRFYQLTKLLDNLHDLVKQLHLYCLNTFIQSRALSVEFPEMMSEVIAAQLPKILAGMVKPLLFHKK
Assay: qHTS assay to identify small molecule antagonists of the progesterone receptor (PR) signaling pathway (AID 1346795); further: potency means the concentration at half of the fitted maximal effect
Details: PR-UAS-bla HEK293T, beta-lactamase FRET ratio, 16 h; series mostly up to 92.4 µM
Inconclusive results are not listed. The source made the active and inactive calls. Calls follow the shape of the dose curve; as a rule, active = well fitted inhibition curve with a large enough effect in the signal ratio in the repeat runs (not every such curve was filed as active); inconclusive = weak or mixed curves; inactive = flat fitted curve, though single readings scatter; the % refers to the signal ratio.

| molecule | Potency |
| --- | --- |
| CCC(Cl)C(Cl)C(Cl)CC(Cl)C(Cl)C(C)Cl (centres undefined) | 17.2 µM (active) |
| CCN1/C(=C/C=C/c2sc3ccccc3[n+]2CC)Sc2ccccc21 | 11.6 µM (active) |
| CO[Si](CCCNc1ccccc1)(OC)OC | inactive |
| COc1cc(-c2ccc(N=C=O)c(OC)c2)ccc1N=C=O | inactive |
| CC(C)(C)C(=O)OCOC(=O)[C@@H]1N2C(=O)[C@@H](NC(=O)[C@H](N)c3ccccc3)[C@H]2SC1(C)C | inactive |
| CCCCCCCC(=O)[O-].CCCCCCCC(=O)[O-].[Zn+2] | inactive |
| CCCCN(CCCC)C(=O)N(CCCC)CCCC | inactive |
| C=CC(=O)OCC(CO)(COCC(COC(=O)C=C)(COC(=O)C=C)COC(=O)C=C)COC(=O)C=C | 6.04 µM (active) |
| COc1ccc(-c2ccc3cc(C(=O)O)ccc3c2)cc1C12CC3CC(CC(C3)C1)C2 | inactive |
| CCCCCOc1ccccc1/C(=C\SC)n1ccnc1 | 3.76 µM (active) |
| CCCCCCCCCCCCCCCS(=O)(=O)Oc1ccccc1 | inactive |
| O=C(O)c1c(Cl)cccc1Cl | inactive |
| O=C(c1ccc(O)cc1O)c1ccc(O)cc1O | 10.9 µM (active) |
| C/C(=C(/OCCOc1ccc(Cl)cc1)c1ccc(Cl)cc1Cl)n1ccnc1 | 8.41 µM (active) |
| N=C1C=CC(=C(c2ccc(N)cc2)c2ccc(N)cc2)C=C1 | inactive |
| COC(=O)C1=C(C)NC(C)=C(C(=O)OCC(C)C)C1c1ccccc1[N+](=O)[O-] (centres undefined) | 10.6 µM (active) |
| CS(=O)(=O)CCNCc1ccc(-c2ccc3ncnc(Nc4ccc(OCc5cccc(F)c5)c(Cl)c4)c3c2)o1 | 7.5 µM (active) |
| CC(C)c1ccc2c(c1)CC[C@H]1[C@](C)(CN)CCC[C@]21C | inactive |
| NNc1nc(-c2ccc(N)cc2)cs1 | inactive |
| Oc1cc2ccccc2c2ccccc12 | 6.11 µM (active) |
| COC(=O)C1=C(C)NC(C)=C(C(=O)OCCc2ccc(N3CCN(C(c4ccccc4)c4ccccc4)CC3)cc2)C1c1cccc([N+](=O)[O-])c1 (centres undefined) | inactive |
| CC(C)=CCOc1ccc(/C=C/C(=O)c2ccc(OCC=C(C)C)cc2OCC(=O)O)cc1 | 26.6 µM (active) |
| Clc1ccc2nsnc2c1NC1=NCCN1 | inactive |
| COc1cc(-c2nc(NC(=O)c3cc4cc(C)cc(C)c4n3CC(=O)O)sc2CCC2CCCCC2)c(OC)cc1Cl | 12.5 µM (active) |
| CC(=O)N1CCN(c2ccc(OC[C@H]3CO[C@](Cn4ccnc4)(c4ccc(Cl)cc4Cl)O3)cc2)CC1 | 13.7 µM (active) |
| O=C1c2c(O)ccc(Nc3ccc(CCO)cc3)c2C(=O)c2c([N+](=O)[O-])ccc(O)c21 | inactive |
| Cc1ccc(O)c(C(C)(C)C)c1 | inactive |
| C1CCCC1 | inactive |
| O=c1cccccc1O | inactive |
| CCC1=C[C@@H]2CN(C1)Cc1c([nH]c3ccccc13)[C@@](C(=O)OC)(c1cc3c(cc1OC)N(C)[C@H]1[C@@](O)(C(=O)OC)[C@H](OC(C)=O)[C@]4(CC)C=CCN5CC[C@]31[C@@H]54)C2 | 0.944 µM (active) |
| Cc1nc(-c2ccc3c(c2)CCN(CCC2CCC(NC(=O)/C=C/c4ccc(F)cc4)CC2)CC3)no1 (centres undefined) | inactive |
| Clc1ccc(C(Cn2ccnc2)OCc2ccc(Sc3ccccc3)cc2)c(Cl)c1 (centres undefined) | 29.8 µM (active) |
| CNC(=O)c1ccccc1 | inactive |
| Cc1[nH]cnc1C[C@H]1CCc2c(C)c3ccccc3n2C1=O | 37.6 µM (active) |
| CCc1oc2ccccc2c1C(=O)c1cc(Br)c(O)c(Br)c1 | 23.7 µM (active) |
| NC(=O)C1(N2CCCCC2)CCN(CCCN2c3ccccc3CCc3ccc(Cl)cc32)CC1 | 23.7 µM (active) |
| C=C(C)C(=O)OCC(O)COc1ccc(C(C)(C)c2ccc(OCC(O)COC(=O)C(=C)C)cc2)cc1 (centres undefined) | 61.1 µM (active) |
| O=C(Nc1ccc(Oc2ccc(Cl)cc2)c(Cl)c1)c1cc(I)cc(I)c1O | 23.7 µM (active) |
| O=CC=C(c1ccccc1)c1ccccc1 | 27.5 µM (active) |
| O=C(O)c1ccc(Cl)c(Cl)c1 | inactive |
| CCC(N)(CO)CO | inactive |
| CSc1ccc(C(=O)c2[nH]c(=O)[nH]c2C)cc1 | inactive |
| CCN(Cc1cccnc1)C(=O)c1cccc(Cl)c1[C@]1(C)C(=O)N(Cc2ccc(OC)cc2OC)c2ccc(Cl)cc21 | 16.1 µM (active) |
| Fc1ccc(C(c2ccc(F)cc2)N2CCN(C/C=C/c3ccccc3)CC2)cc1 | 23.7 µM (active) |

Where do these numbers come from? They come from PubChem BioAssay (Tox21).
